Data origin, for the record: the supplement of paper PMC8728848

Molecular target: Gal(b1-4)GlcNAc(b1-3)Gal(b1-4)GlcNAc(b1-3)Gal(b1-4)GlcNAc(b1-3)Gal(b1-4)GlcNAc(b1-3)Gal(b1-4)GlcNAc(b1-2)Man(a1-3)[Gal(b1-4)GlcNAc(b1-3)Gal(b1-4)GlcNAc(b1-3)Gal(b1-4)GlcNAc(b1-3)Gal(b1-4)GlcNAc(b1-3)Gal(b1-4)GlcNAc(b1-2)Man(a1-6)]Man(b1-4)GlcNAc(b1-4)[Fuc(a1-6)]GlcNAc
Assay: glycan array binding signal (z-score within array); higher = stronger binding
Settings: glycan notation: IUPAC condensed, linker removed
Shown is part of a subset that was picked to be rich in the strongest signals.

{"binder": "Si Bti9 1b-V5-his (Solanum lycopersicum) (protein) MQCNRGCDLALASFYVWRGSNLTLISEMFSTSIADIVSYNNRDNIPNQDSVIAGTRINIPFRCDCLNDGEVLGHAFPYRVKSGDTYDLVARNYSDLTTAQWMMKFNSYPENNIPNTVNLSVVVNCSCGNSDVSKDFGLFVTYPVRAEDNLTSVASAANVSEDIIRRYNPAAVSILDIGQGIIYIPGRDRNGNFPPLPTSTDGLSGGAKKGGRADPAFLYKVVINSKLEGKPIPNPLLGLDSTRTGHHHHHH", "glycan array binding signal (z-score)": -0.258}
{"binder": "SP15308C-bot-338-23-338 (Bacteroides ovatus) (protein) DEWTDEQFKQLISFKTQPGGWGVTDVHVRYANSAKYTYNLPVLVSGSTDNTDDRLVSFSLRDDTLDILNFEKFGNRPELYFRELPQKYYSFPKELTIPAGQSHALLPIEFSLDGLDDSQKWALPLKVCEDANGTYAVNPRKYYRTAVLRPILFNEFSGRFSGSSLLGTMAGESDIKFSSTEIKLNVVTDSIVFFYAGQRTEDYEDRINYKVFLQFTGDKVDSKKDLYKMKIWAENEKLKFNSYSTPTYKVSSEMDATKTYLKHTYIVISDIDFDFVDYTSVPNYEIEYNMKGGLSVSRDLDTRKPDEDQGSDSKWW", "glycan array binding signal (z-score)": 2.46}
{"binder": "HML-Native (Hypnea musciformis), P84871 (protein) QKFCTLDIAPVCCQIVIGGGMYTAGNACMCEGFVSGVGRCENPKECPCTREAQIPSCCSSRWGLVSVTGKCACDCLGGTVAFPEPCPSPY", "glycan array binding signal (z-score)": 4.8}
